system.under.test: mGluR2 receptor (metabotropic glutamate receptor 2) (Homo sapiens)
Construct: expressed in transfected cells
Sequence (Q14416 19-872, species assumed): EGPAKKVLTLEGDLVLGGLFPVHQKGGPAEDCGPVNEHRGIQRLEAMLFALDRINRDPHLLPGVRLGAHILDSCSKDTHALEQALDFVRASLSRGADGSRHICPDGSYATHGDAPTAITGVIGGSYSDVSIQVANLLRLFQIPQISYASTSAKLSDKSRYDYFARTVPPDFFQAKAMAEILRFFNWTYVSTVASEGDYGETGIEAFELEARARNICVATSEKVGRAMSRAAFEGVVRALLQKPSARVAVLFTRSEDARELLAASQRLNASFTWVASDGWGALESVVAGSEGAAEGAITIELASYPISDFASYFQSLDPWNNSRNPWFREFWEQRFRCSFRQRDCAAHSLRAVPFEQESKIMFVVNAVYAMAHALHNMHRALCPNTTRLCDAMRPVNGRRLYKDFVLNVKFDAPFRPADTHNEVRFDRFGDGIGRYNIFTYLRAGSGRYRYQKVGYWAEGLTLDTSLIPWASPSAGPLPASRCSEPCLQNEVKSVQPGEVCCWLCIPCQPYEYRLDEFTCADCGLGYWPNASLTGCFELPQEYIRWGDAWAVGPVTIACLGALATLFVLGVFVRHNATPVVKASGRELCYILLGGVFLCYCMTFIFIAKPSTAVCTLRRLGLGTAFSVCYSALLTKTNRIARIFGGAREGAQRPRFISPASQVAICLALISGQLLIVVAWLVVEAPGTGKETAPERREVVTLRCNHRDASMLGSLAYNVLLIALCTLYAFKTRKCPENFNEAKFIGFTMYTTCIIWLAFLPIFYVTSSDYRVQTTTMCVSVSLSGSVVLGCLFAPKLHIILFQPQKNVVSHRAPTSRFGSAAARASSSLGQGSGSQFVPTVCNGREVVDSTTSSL
procedure.text: mGluR2 Potentiator Screen, FLIPR, EC10-EC20 glutamate challenge
Assay type: cell-based
test.settings: HEK cells stably transfected with mGluR2 and Gα15; FLIPR (Fluo-4); potentiation of an EC10 to EC20 concentration of glutamate; Table 9
quantity.measured: pEC50
Field pEC50 (float): negative decimal logarithm of the concentration in molar.

Examples from the recorded data:
molecule	pEC50
FC(F)(F)c1ccc(C2CCN(Cc3nc4nccc5c4n3CCC5)CC2)cc1	7.20
COc1cc(F)ccc1[C@H]1CCN(Cc2nc3nccc4c3n2CCC4)C[C@H]1C (relative stereo)	7.52
C[C@@H]1CN(Cc2nc3nccc4c3n2CCC4)CC[C@@H]1c1ccc(F)cc1F (relative stereo)	7.33
C[C@@H]1CN(Cc2nc3nccc4c3n2CCC4)CC[C@@H]1c1ccc(F)c(Cl)c1 (relative stereo)	6.87

Turning now to a further record.
Fill in the recorded pEC50 for this molecule, with mGluR2 receptor (metabotropic glutamate receptor 2) (Homo sapiens) as test system: C[C@@H]1CN(Cc2nc3nccc4c3n2CCC4)CC[C@@H]1c1ccc(Cl)cc1F (relative stereo)
7.90
